- System: HEK-293T
- experimental.details: Multiplex assay against HEK293T
- Format: toxicity, cell-based
- experimental.parameters: human, 12 h, 10 µM, compound concentration 10 uM, replicate 2
quantity: Total Cell Count
Number only, please.

Please review the following examples before continuing.
compound=O=C(Nc1cc(-c2ccccc2)nn1-c1ccccc1F)c1ccc([N+](=O)[O-])cc1 reported_measurement=367
compound=COc1ccc2[nH]c(I)c(CCNC(C)=O)c2c1 reported_measurement=316
compound="COCCCN1CCC(NC(=O)c2cc(Cl)c(N)c3c2OCC3)CC1 [PRUCALOPRIDE]" reported_measurement=261
compound="Cl.Cl.OCCOCCN1CCN(C(c2ccccc2)c2ccc(Cl)cc2)CC1 (stereo not drawn) [HYDROXYZINE HYDROCHLORIDE]" reported_measurement=327
compound="O=C(O)CCC/C=C\\CC1C(O)CC(O)C1/C=C/C(O)COc1cccc(Cl)c1 (stereo not drawn)" reported_measurement=357

Query: # lookup: Total Cell Count of "COCCn1c(C)c(C)s/c1=N\C(=O)C1C(C)(C)C1(C)C"
Result: 315

Query: # lookup: Total Cell Count of CN(C)C/C=C/C(=O)Nc1ccc(C(=O)N2CCCC(Nc3ncc(Cl)c(-c4c[nH]c5ccccc45)n3)C2)cc1 (stereo not drawn)
Result: 181

Query: # lookup: Total Cell Count of "CCc1nn2c(C)cc(C)nc2c1Cc1ccc(-c2nnc(C3CCNCC3)o2)cc1"
Result: 293

----------
- Tested on: U2OS
- experimental.details: Multiplex assay against U2OS
- Format: toxicity, cell-based
- experimental.parameters: human, 24 h, 10 µM, compound concentration 10 uM, replicate 2
Property: Population Tubulin-Different-Phenotype (%); scope: individual compounds
The response must be a number in % with no trailing unit.

compound="COc1ccc2c(c1OCc1ccccc1)C[C@@H](C(=O)O)N(C(=O)C(c1ccccc1)c1ccccc1)C2 [OLODANRIGAN]" result_units=% reported_measurement=2
compound=CN1CCN(c2ccc(Nc3c4ccccc4nc4ccccc34)cc2)CC1.Cl.Cl.O result_units=% reported_measurement=100
compound=OCCCNc1cc(-c2ccnc(Nc3cccc(Cl)c3)n2)ccn1 result_units=% reported_measurement=61
compound="CCCCC[C@H](O)/C=C/[C@H]1[C@H](O)CC(=O)[C@@H]1CCCCCCC(=O)O [ALPROSTADIL]" result_units=% reported_measurement=1
compound="CCC(=O)OCC(=O)[C@@]1(OC(=O)CC)[C@@H](C)C[C@H]2[C@@H]3CCC4=CC(=O)C=C[C@]4(C)[C@@]3(Cl)[C@@H](O)C[C@@]21C [BECLOMETHASONE DIPROPIONATE]" result_units=% reported_measurement=76

Query: # lookup: Population Tubulin-Different-Phenotype (%) of C=CCN1C[C@H](C(=O)N(CCCN(C)C)C(=O)NCC)C[C@@H]2c3cccc4[nH]cc(c34)C[C@H]21 [CABERGOLINE]
Result: 10

Query: # lookup: Population Tubulin-Different-Phenotype (%) of "CC(C)(O)C(=O)N1CCN(c2ccc(C(F)(F)F)c(C3=C(c4c[nH]c5ccccc45)C(=O)NC3=O)c2)CC1"
Result: 11

Query: # lookup: Population Tubulin-Different-Phenotype (%) of Cc1cc(NC(=O)NCCN2CCC(O)(Cc3ccccc3)CC2)c2ccccc2n1 [PALOSURAN]
Result: 5

Value source: ChEMBL document CHEMBL5058577
